Origin of values: patent US12533425B2

Entries and their measured normalized average signal intensity for nerve binding follow.
- System: human sural nerve
- Experimental Protocol: Topical application of FAM-labelled peptides on sections of human sural nerve and temporalis muscle
- Assay type: binding
- Experimental Context: normalized to parent FAM-HNP401, topical 100 μM, human sural nerve sections
No end group written: not given here.
Write the number on its own, no unit after it.

{"Substance": "Ac-SGQVPWEEPYYVVGGC [HNP401-C-4, with GGC linker, tested FAM labelled]", "Measurement Target": "human sural nerve", "Measured Number": 0.49}
{"Substance": "Ac-QVPWEEPYYVVKKSSGGC [HNP401-N-2, with GGC linker, tested FAM labelled]", "Measurement Target": "human sural nerve", "Measured Number": 2.02}
{"Substance": "Ac-EEPYYVVKKSSGGC [HNP401-N-6, with GGC linker, tested FAM labelled]", "Measurement Target": "human sural nerve", "Measured Number": 1.0}
{"Substance": "Ac-PYYVVKKSSGGC [HNP401-N-8, with GGC linker, tested FAM labelled]", "Measurement Target": "human sural nerve", "Measured Number": 0.98}

Then there is this substance:
Record Ac-PWEEPYYVVKKSSGGC [HNP401-N-4, with GGC linker, tested FAM labelled] , field normalized average signal intensity for nerve binding: 0.56
